Just for reference, ChEMBL document CHEMBL4689842 is where these values come from.

# Test system: U2OS
# assay notes: Multiplex assay against U2OS
# Type: toxicity, cell-based
# details: human, 12 h, 1 µM, compound concentration 1 uM, replicate 1
Kindly supply the reported Population Mitochondria Different-Phenotype (%) values for the records listed here.
Answers are plain numbers, in %.

Worked examples, 3 compounds total:
compound	measured target	quantity unit	result
O=C(c1cc2c(cc1F)OC(c1ccc(F)cc1)(c1ccc(Cl)cc1Cl)O2)N1CCOCC1 (stereo not given)	U2OS	%	17
CCOC(=O)Nc1cc(-c2ccc(C)c(NS(C)(=O)=O)c2)nn2c(C)nnc12	U2OS	%	27
COc1cc2ncn(-c3cc(OCc4ccccc4C(F)(F)F)c(C(N)=O)s3)c2cc1OC [GW843682X]	U2OS	%	17

Dear colleague, could you please provide Population Mitochondria Different-Phenotype (%) for the compounds listed below?
1. Cl.O=C(O)c1cc(-c2ccc(C3CCNCC3)cc2)c2ccc(-c3ccc(C(F)(F)F)cc3)cc2c1
2. CC1=C(C(=O)Nc2cc3cn[nH]c3cc2F)C(c2ccc(C(F)(F)F)cc2)CC(=O)N1 (stereo not given)

9
5

----------
# Tested on: HEK-293T
# assay notes: Multiplex assay against HEK293T
# Assay type: toxicity, cell-based
# details: human, 12 h, 10 µM, compound concentration 10 uM, replicate 1
Binary label based on Population Hoechst High Intensity Objects (%) with cut-off 20%: below gives met, not below gives not met.

Solved cases (6 shown):
molecule	class label
CC(C)OC(=O)N1CCC(Oc2ncnc3c2cnn3-c2ccc(S(C)(=O)=O)cc2F)CC1	met
Cl.O=C(O)c1cc(-c2ccc(C3CCNCC3)cc2)c2ccc(-c3ccc(C(F)(F)F)cc3)cc2c1	met
O=C(c1cc2c(cc1F)OC(c1ccc(F)cc1)(c1ccc(Cl)cc1Cl)O2)N1CCOCC1 (stereo not drawn)	met
CC1=C(C(=O)Nc2cc3cn[nH]c3cc2F)C(c2ccc(C(F)(F)F)cc2)CC(=O)N1 (stereo not drawn)	met
COC(=O)C1=C(C)NC(C)=C(C(=O)OCCCN2CCC(c3ccccc3)(c3ccccc3)CC2)[C@H]1c1cccc([N+](=O)[O-])c1	met
CNC(=O)Nc1ccc(-c2nc(N3CC4CCC(C3)O4)c3cnn(C4CCC5(CC4)OCCO5)c3n2)cc1	not met

For the next question, use this molecule.
Here's an entry: CCc1ccc(OCc2ccccc2C(=O)Nc2ccc3nc(C)cc(N)c3c2)cc1.Cl . Is its Population Hoechst High Intensity Objects (%) below 20%?
not met

----------
# Tested on: Fibroblast
# assay notes: Multiplex assay against human fibroblast
# Format: toxicity, cell-based
# details: 24 h, 1 µM, compound concentration 1 uM, replicate 2
Label scheme for Population Membrane Permeable-Phenotype (%): lower than 5% is Condition not met, 5% and above is Condition met.

Solved cases (3 shown):
compound string	class label
C[C@]12CC[C@@H]3c4ccc(O)cc4CC[C@H]3[C@@H]1CC[C@@H]2O	Condition not met
CC(C)c1noc(N2CCC(COc3ccc(-c4ccc(S(C)(=O)=O)cc4)nc3)CC2)n1	Condition not met
CCc1ccc(OCc2ccccc2C(=O)Nc2ccc3nc(C)cc(N)c3c2)cc1.Cl	Condition met

For the next question, use this molecule.
Tell me whether Population Membrane Permeable-Phenotype (%) is at least 5% here: CC(C)Oc1ccccc1C(=O)Nc1ccccc1C(=O)Nc1cccc(S(=O)(=O)C(F)(F)F)c1
Condition met

----------
# System: U2OS
# assay notes: Multiplex assay against U2OS
# Assay type: toxicity, cell-based
# details: human, 24 h, 1 µM, compound concentration 1 uM, replicate 2
Binary label based on Population Apoptotic (%) with cut-off 60%: below gives condition met, not below gives condition not met.

Solved cases (4 shown):
molecule	class label
CCCSc1nc(N[C@@H]2C[C@H]2c2ccc(F)c(F)c2)c2nnn([C@@H]3C[C@H](OCCO)[C@@H](O)[C@H]3O)c2n1	condition met
COc1ccccc1CN[C@H]1C2CCN(CC2)[C@H]1C(c1ccccc1)c1ccccc1	condition met
COC(=O)C1=C(C)NC(C)=C(C(=O)OCCCN2CCC(c3ccccc3)(c3ccccc3)CC2)[C@H]1c1cccc([N+](=O)[O-])c1	condition not met
CN1CCN(Cc2ccc(Nc3ncc(Cl)c(Nc4ccccc4S(=O)(=O)N(C)C)n3)cc2)CC1	condition met

Here's an entry: CCOC(=O)Nc1cc(-c2ccc(C)c(NS(C)(=O)=O)c2)nn2c(C)nnc12 . Is its Population Apoptotic (%) below 60%?
condition met

Here's an entry: CC(C)c1noc(N2CCC(COc3ccc(-c4ccc(S(C)(=O)=O)cc4)nc3)CC2)n1 . Is its Population Apoptotic (%) below 60%?
condition met

Here's an entry: CNC(=O)Nc1ccc2c(c1)[C@@]1(CC2)OC(=O)N(CC(=O)N(Cc2ccc(F)cc2)[C@@H](C)C(F)(F)F)C1=O . Is its Population Apoptotic (%) below 60%?
condition not met

Here's an entry: Cl.O=C(O)c1cc(-c2ccc(C3CCNCC3)cc2)c2ccc(-c3ccc(C(F)(F)F)cc3)cc2c1 . Is its Population Apoptotic (%) below 60%?
condition met

Here's an entry: Cc1cccc(CN2CCN(C(c3ccccc3)c3ccc(Cl)cc3)CC2)c1.Cl.Cl (stereo not given) . Is its Population Apoptotic (%) below 60%?
condition not met

Here's an entry: CNC(=O)Nc1ccc(-c2nc(N3CC4CCC(C3)O4)c3cnn(C4CCC5(CC4)OCCO5)c3n2)cc1 . Is its Population Apoptotic (%) below 60%?
condition met

Here's an entry: CC(C)OC(=O)N1CCC(Oc2ncnc3c2cnn3-c2ccc(S(C)(=O)=O)cc2F)CC1 . Is its Population Apoptotic (%) below 60%?
condition met

Here's an entry: COc1ccc(-c2ccc3ncc4c(c3c2)n(-c2ccc(N3CCNCC3)c(C(F)(F)F)c2)c(=O)n4C)cn1.O=C(O)/C=C\C(=O)O . Is its Population Apoptotic (%) below 60%?
condition not met

Here's an entry: CC(C)(C)NC[C@H](O)COc1nsnc1N1CCOCC1 . Is its Population Apoptotic (%) below 60%?
condition met

----------
# System: Fibroblast
# assay notes: Multiplex assay against human fibroblast
# Format: toxicity, cell-based
# details: 24 h, 1 µM, compound concentration 1 uM, replicate 1
property measured: Population Hoechst High Intensity Objects (%)
Answers are plain numbers, in %.

Worked examples, 5 compounds total:
compound	result
O=c1cc(N2CCOCC2)oc2c(-c3cccc4c3sc3ccccc34)cccc12	9
C=CC(=O)Nc1ccc2[nH]c(=O)n(C3CCN(Cc4ccc(-c5nc6cc[nH]c(=O)c6cc5-c5ccccc5)cc4)CC3)c2c1	13
Cc1cccc(CN2CCN(C(c3ccccc3)c3ccc(Cl)cc3)CC2)c1.Cl.Cl (centres undefined)	26
CC(C)(C)NC[C@H](O)COc1nsnc1N1CCOCC1	12
CC(C)OC(=O)N1CCC(Oc2ncnc3c2cnn3-c2ccc(S(C)(=O)=O)cc2F)CC1	13

Dear colleague, could you please provide Population Hoechst High Intensity Objects (%) for the compounds listed below?
1. CC(C)Oc1ccccc1C(=O)Nc1ccccc1C(=O)Nc1cccc(S(=O)(=O)C(F)(F)F)c1
2. C=CC(=O)Nc1cccc(Sc2nc(Nc3ccc(N4CCN(C)CC4)cc3)ncc2Cl)c1
3. C[C@]12CC[C@@H]3c4ccc(O)cc4CC[C@H]3[C@@H]1CC[C@@H]2O
4. Cc1ccccc1C(c1ccccc1C)N1C2CCC1CC(O)(c1ccccc1)C2 (centres undefined)

1. 11
2. 7
3. 18
4. 20

----------
# Test system: Fibroblast
# assay notes: Multiplex assay against human fibroblast
# Format: toxicity, cell-based
# details: 48 h, 10 µM, compound concentration 10 uM, replicate 1
property measured: Population Hoechst High Intensity Objects (%)
Numbers only, in %.

Worked examples, 4 molecules total:
molecule	result
CCc1ccc(OCc2ccccc2C(=O)Nc2ccc3nc(C)cc(N)c3c2)cc1.Cl	47
CC1=C(C(=O)Nc2cc3cn[nH]c3cc2F)C(c2ccc(C(F)(F)F)cc2)CC(=O)N1 (configuration not stated)	11
Cl.O=C(O)c1cc(-c2ccc(C3CCNCC3)cc2)c2ccc(-c3ccc(C(F)(F)F)cc3)cc2c1	21
CC(C)OC(=O)N1CCC(Oc2ncnc3c2cnn3-c2ccc(S(C)(=O)=O)cc2F)CC1	17

Dear colleague, could you please provide Population Hoechst High Intensity Objects (%) for the molecules listed below?
1. COc1ccc(-c2ccc3ncc4c(c3c2)n(-c2ccc(N3CCNCC3)c(C(F)(F)F)c2)c(=O)n4C)cn1.O=C(O)/C=C\C(=O)O [BGT-226]
2. CCCSc1nc(N[C@@H]2C[C@H]2c2ccc(F)c(F)c2)c2nnn([C@@H]3C[C@H](OCCO)[C@@H](O)[C@H]3O)c2n1 [TICAGRELOR]
3. COC(=O)C1=C(C)NC(C)=C(C(=O)OCCCN2CCC(c3ccccc3)(c3ccccc3)CC2)[C@H]1c1cccc([N+](=O)[O-])c1 [NIGULDIPINE]

1: 42; 2: 20; 3: 28

----------
# Test system: HEK-293T
# assay notes: Multiplex assay against HEK293T
# Assay type: toxicity, cell-based
# details: human, 48 h, 1 µM, compound concentration 1 uM, replicate 2
property measured: Population Pyknosed Nuclei (%)
Numbers only, in %.

Worked examples, 8 molecules total:
molecule	Population Pyknosed Nuclei (%)
Cc1ccc(C)c(Oc2ccncc2C(=O)N2CCN(C3CC3)c3ccccc32)c1	18
COc1cc(Nc2nccc(-c3cnn4nc(OC)ccc34)n2)cc(C(F)(F)F)c1	10
Cc1ccc2c(c1)c1c(n2CCc2ccc(C)nc2)CCN(C)C1 [LATREPIRDINE]	16
Cl.O=C(O)c1cc(-c2ccc(C3CCNCC3)cc2)c2ccc(-c3ccc(C(F)(F)F)cc3)cc2c1	13
CNC(=O)Nc1ccc(-c2nc(N3CC4CCC(C3)O4)c3cnn(C4CCC5(CC4)OCCO5)c3n2)cc1	40
CC(C)NC(=O)N1CC[C@H](NC2=Nc3cc(F)ccc3N(CC(F)F)c3ccc(Cl)cc32)C1	10
CCc1ccc(OCc2ccccc2C(=O)Nc2ccc3nc(C)cc(N)c3c2)cc1.Cl	73
CC(C)(C)NC[C@H](O)COc1nsnc1N1CCOCC1	12

Dear colleague, could you please provide Population Pyknosed Nuclei (%) for the molecules listed below?
1. Cc1c[nH]c2nccc(Oc3c(F)cc(Nc4cc(Cl)nc(N)n4)cc3F)c12
2. O=c1cc(N2CCOCC2)oc2c(-c3cccc4c3sc3ccccc34)cccc12
3. Cc1ccccc1C(c1ccccc1C)N1C2CCC1CC(O)(c1ccccc1)C2 (stereo not given)

10
15
10

Dear colleague, could you please provide Population Pyknosed Nuclei (%) for the molecules listed below?
1. CCCSc1nc(N[C@@H]2C[C@H]2c2ccc(F)c(F)c2)c2nnn([C@@H]3C[C@H](OCCO)[C@@H](O)[C@H]3O)c2n1
2. CCc1nn(CCCN2CCN(c3cccc(Cl)c3)CC2)c(=O)n1CCOc1ccccc1.Cl [NEFAZODONE HYDROCHLORIDE]
3. COc1ccc(-c2ccc3ncc4c(c3c2)n(-c2ccc(N3CCNCC3)c(C(F)(F)F)c2)c(=O)n4C)cn1.O=C(O)/C=C\C(=O)O

1: 16; 2: 22; 3: 71

Dear colleague, could you please provide Population Pyknosed Nuclei (%) for the molecules listed below?
1. CC(C)c1noc(N2CCC(COc3ccc(-c4ccc(S(C)(=O)=O)cc4)nc3)CC2)n1
2. Cc1cccc(CN2CCN(C(c3ccccc3)c3ccc(Cl)cc3)CC2)c1.Cl.Cl (stereo not given)
3. CN1CCN(Cc2ccc(Nc3ncc(Cl)c(Nc4ccccc4S(=O)(=O)N(C)C)n3)cc2)CC1
4. COC(=O)C1=C(C)NC(C)=C(C(=O)OCCCN2CCC(c3ccccc3)(c3ccccc3)CC2)[C@H]1c1cccc([N+](=O)[O-])c1

1. 14
2. 13
3. 5
4. 37

Dear colleague, could you please provide Population Pyknosed Nuclei (%) for the molecules listed below?
1. O=C(c1cc2c(cc1F)OC(c1ccc(F)cc1)(c1ccc(Cl)cc1Cl)O2)N1CCOCC1 (stereo not given)
2. CC(C)OC(=O)N1CCC(Oc2ncnc3c2cnn3-c2ccc(S(C)(=O)=O)cc2F)CC1
3. CC1=C(C(=O)Nc2cc3cn[nH]c3cc2F)C(c2ccc(C(F)(F)F)cc2)CC(=O)N1 (stereo not given)
4. C[C@]12CC[C@@H]3c4ccc(O)cc4CC[C@H]3[C@@H]1CC[C@@H]2O
5. COc1cc2ncn(-c3cc(OCc4ccccc4C(F)(F)F)c(C(N)=O)s3)c2cc1OC [GW843682X]

1. 18
2. 11
3. 11
4. 13
5. 29

Dear colleague, could you please provide Population Pyknosed Nuclei (%) for the molecules listed below?
1. CC(C)Oc1ccccc1C(=O)Nc1ccccc1C(=O)Nc1cccc(S(=O)(=O)C(F)(F)F)c1
2. COc1ccccc1CN[C@H]1C2CCN(CC2)[C@H]1C(c1ccccc1)c1ccccc1

1. 19
2. 9
